The entries below come with measured IC50 values attached.
target: full-length MALT1 protein His-MALT1(1-824) (Homo sapiens, UniProt Q9UDY8); construct: full-length MALT1 protein His-MALT1(1-824); His (N); made in house; host or cells: baculovirus-infected insect cells; test: MALT1 protease assay, Assay 2 (1 nM MALT1, Ac-LRSR-AMC substrate); assay type: biochemical; details: 1 nM MALT1, 50 μM Ac-LRSR-AMC, 2 h pre-incubation, 8 hr incubation at RT
Sequence (Q9UDY8 whole entry): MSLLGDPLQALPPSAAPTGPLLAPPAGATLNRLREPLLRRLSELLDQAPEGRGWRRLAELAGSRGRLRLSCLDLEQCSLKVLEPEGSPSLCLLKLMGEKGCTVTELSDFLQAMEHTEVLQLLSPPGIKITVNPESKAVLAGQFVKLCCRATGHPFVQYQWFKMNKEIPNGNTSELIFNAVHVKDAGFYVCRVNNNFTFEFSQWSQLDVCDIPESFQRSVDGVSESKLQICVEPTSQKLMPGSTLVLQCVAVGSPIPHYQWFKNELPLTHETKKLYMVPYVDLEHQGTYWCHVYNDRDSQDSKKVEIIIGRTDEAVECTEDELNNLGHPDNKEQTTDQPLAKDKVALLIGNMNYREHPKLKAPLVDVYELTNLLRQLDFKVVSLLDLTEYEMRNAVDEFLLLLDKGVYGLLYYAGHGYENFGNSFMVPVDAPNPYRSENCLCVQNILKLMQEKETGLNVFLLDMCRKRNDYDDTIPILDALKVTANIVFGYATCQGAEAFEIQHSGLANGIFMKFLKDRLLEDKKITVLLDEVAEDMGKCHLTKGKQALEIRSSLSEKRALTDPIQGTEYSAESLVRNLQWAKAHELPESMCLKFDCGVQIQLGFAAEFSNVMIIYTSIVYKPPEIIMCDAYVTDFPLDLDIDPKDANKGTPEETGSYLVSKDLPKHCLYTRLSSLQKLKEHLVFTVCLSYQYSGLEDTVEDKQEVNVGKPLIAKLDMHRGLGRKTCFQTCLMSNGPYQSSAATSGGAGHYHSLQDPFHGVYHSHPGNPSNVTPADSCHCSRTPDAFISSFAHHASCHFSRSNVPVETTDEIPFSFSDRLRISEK

Look over these answered cases.
1. Cc1cc2cc(F)c3c(n2n1)C(C)(C)C[C@H]3C(=O)Nc1cnc(-n2nccn2)c(Cl)c1 (single isomer, unassigned) [Example 156]; ≥ 1000 nM
2. Cc1cn2ncc3c(c2n1)C(C)(C)CC3C(=O)Nc1cnc(-n2nccn2)c(Cl)c1 (single isomer, unassigned) [Example 189]; < 10 nM
3. CC1(C)CC(C(=O)Nc2cnc(-n3nccn3)c(Cl)c2)c2cnc3c(F)c(F)nn3c21 (single isomer, unassigned) [Example 122]; < 10 nM
4. CC1(C)CC(C(=O)Nc2cnc(OC(F)F)c(Cl)c2)c2cnc3cc(Cl)nn3c21 (single isomer, unassigned) [Example 68]; < 10 nM
5. C[C@@]1(C(F)(F)F)C[C@H](C(=O)Nc2cnc(-n3nccn3)c(C(F)(F)F)c2)c2cnc3cc(Cl)nn3c21 (single isomer, unassigned) [Example 56]; < 10 nM

Let's switch to this compound now.
Could you share which IC50 value was measured for CN(C(=O)c1ncc(NC(=O)[C@@H]2CC(C)(C)c3c2cnc2cc(Cl)nn32)cc1C(F)F)C1CC1 (single isomer, unassigned) [Example 72] ?
≥ 1000 nM

This collection of values is drawn from patent US12667572B2.
